Target: Protein smoothened (Homo sapiens, UniProt Q99835)
Sequence (Q99835 whole entry): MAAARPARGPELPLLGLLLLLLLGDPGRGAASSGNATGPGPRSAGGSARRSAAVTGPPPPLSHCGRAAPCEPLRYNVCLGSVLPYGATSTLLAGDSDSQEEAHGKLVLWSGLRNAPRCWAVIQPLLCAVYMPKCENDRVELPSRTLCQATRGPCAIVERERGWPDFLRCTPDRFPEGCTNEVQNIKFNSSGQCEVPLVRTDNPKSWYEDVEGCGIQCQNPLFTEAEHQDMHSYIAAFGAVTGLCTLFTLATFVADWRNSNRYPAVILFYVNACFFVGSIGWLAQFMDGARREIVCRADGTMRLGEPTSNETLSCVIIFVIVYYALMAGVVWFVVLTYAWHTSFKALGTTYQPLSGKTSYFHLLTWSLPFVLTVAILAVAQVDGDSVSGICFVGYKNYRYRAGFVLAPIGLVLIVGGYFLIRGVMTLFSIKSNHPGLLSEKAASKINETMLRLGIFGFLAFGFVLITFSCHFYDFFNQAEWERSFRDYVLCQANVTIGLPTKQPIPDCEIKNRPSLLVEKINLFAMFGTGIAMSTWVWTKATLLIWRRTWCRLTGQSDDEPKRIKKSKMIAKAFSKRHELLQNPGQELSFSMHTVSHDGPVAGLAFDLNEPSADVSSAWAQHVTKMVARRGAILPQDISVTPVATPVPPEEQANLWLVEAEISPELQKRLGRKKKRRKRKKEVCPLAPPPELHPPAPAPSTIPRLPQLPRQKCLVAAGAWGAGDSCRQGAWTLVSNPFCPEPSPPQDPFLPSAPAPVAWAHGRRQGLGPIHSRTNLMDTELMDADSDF
Test: Displacement of BODIPY-labelled cyclopamine from human Smo receptor expressed in HEK293 cells after 2 hrs by fluorescence microscopy
So basically, if IC50 comes in under 60 nM it's yes (1), and if it's 60 nM or more it's no (0).

stdin: Here's an entry: `COc1cc(C(=O)NC(=O)Nc2ccc(C)c(NC(=O)c3ccc(-c4ccccc4)cc3)c2)cc(OC)c1OC` . Is its IC50 below 60 nM?
stdout: yes (1)

stdin: Dear colleague, could you confirm whether IC50 of `COc1cc(C(=O)NC(=S)Nc2ccc(C)c(NC(=O)c3ccc(-c4ccccc4)cc3)c2)cc(OC)c1OC` falls below 60 nM? Thanks.
stdout: no (0)

stdin: Dear reviewer, please state whether `COc1cc(C(=O)NC(=S)Nc2cccc(NC(=O)c3ccccc3)c2)cc(OC)c1OC` has IC50 strictly beneath 60 nM.
stdout: no (0)

stdin: Please determine if `COc1cc(C(=O)NC(=N)Nc2ccc(C)c(NC(=O)c3ccc(-c4ccccc4)cc3)c2)cc(OC)c1OC` is below 60 nM in terms of IC50.
stdout: yes (1)

stdin: In plain terms, does `COc1cc(C(=O)NC(=O)Nc2cccc(NC(=O)c3ccccc3)c2)cc(OC)c1OC` come in under 60 nM for IC50?
stdout: no (0)

---

Target: Smoothened (Mus musculus)
Assay: Inhibition of Smo-mediated Hh signaling in mouse Shh-light2 cells at 3 uM by luciferase reporter gene assay
Conditions: Shh Light II
Decision: inhibition compared against 90%; not below it gives fulfilled, below it gives not fulfilled.

stdin: I'd appreciate it if you could say whether `COc1cc(OC)cc(C(=O)NC(=S)Nc2cccc(NC(=O)c3ccccc3)c2)c1` has inhibition at least equal to 90%.
stdout: not fulfilled

stdin: Does the reported inhibition for `COc1cc(C(=O)NC(=S)Nc2ccc(C)c(NC(=O)c3ccc(-c4ccc(F)cc4)cc3)c2)cc(OC)c1OC` fall at or above the 90% mark?
stdout: fulfilled

stdin: Form field: inhibition at least 90%? Entry: `COc1cc(C(=O)NC(=S)Nc2ccc(C)c(NC(=O)c3cccc(-c4ccccc4)c3)c2)cc(OC)c1OC`
stdout: fulfilled

stdin: Has `COc1cc(C(=O)NC(=S)Nc2cccc(NC(=O)C3CCCCC3)c2)cc(OC)c1OC` a recorded inhibition greater than or equal to 90%?
stdout: not fulfilled

stdin: Would you say `COc1cc(C(=O)NC(=S)Nc2cccc(NC(=O)Nc3ccc(-c4ccccc4)cc3)c2)cc(OC)c1OC` shows inhibition at minimum 90%?
stdout: not fulfilled

stdin: Quick check: does `CCOc1c(OC)cc(C(=O)NC(=S)Nc2cccc(NC(=O)c3ccccc3)c2)cc1OC` have inhibition greater than or equal to 90%?
stdout: fulfilled

stdin: Answer whether inhibition of `COc1cc(C(=O)NC(=S)Nc2cccc(NC(=O)c3cccc4ccccc34)c2)cc(OC)c1OC` is greater than or equal to 90%.
stdout: not fulfilled

stdin: Hi, just wondering whether `COc1cc(C(=O)NC(=S)Nc2ccc(C)c(NC(=O)c3ccc(-c4ccccc4)cc3)c2)cc(OC)c1OC` shows inhibition of 90% or higher.
stdout: fulfilled

stdin: Test whether the compound `COc1cc(C(=O)NC(=O)Nc2cccc(NC(=O)c3ccc(-c4ccccc4)cc3)c2C)cc(OC)c1OC` records inhibition of 90% or higher.
stdout: fulfilled

stdin: Determine whether measured inhibition meets or exceeds 90% for `COc1cc(C(=O)NC(=O)Nc2cccc(NC(=O)c3ccc(Cl)cc3)c2)cc(OC)c1OC`
stdout: fulfilled

stdin: I'd appreciate it if you could say whether `COc1cc(C(=O)NC(=S)Nc2ccc(C)c(NC(=O)c3ccccc3)c2)cc(OC)c1OC` has inhibition at least equal to 90%.
stdout: fulfilled

stdin: Does the compound `COc1cc(C(=O)NC(=S)Nc2ccc(C)c(NC(=O)c3ccc(Oc4ccccc4)cc3)c2)cc(OC)c1OC` have recorded inhibition that is 90% or more?
stdout: fulfilled

stdin: Does the reported inhibition for `COc1cc(C(=O)NC(=S)Nc2cccc(NC(=O)c3ccccc3)c2C)cc(OC)c1OC` fall at or above the 90% mark?
stdout: not fulfilled

stdin: Does the compound `COc1cc(C(=O)NC(=S)Nc2cccc(NC(=O)Nc3ccccc3)c2)cc(OC)c1OC` have recorded inhibition that is 90% or more?
stdout: not fulfilled

---

Target: Smoothened (Mus musculus)
Assay: Inhibition of Smo-mediated Hh signaling in mouse Shh-light2 cells by luciferase reporter gene assay
value kind: IC50 (µM)
Reply numerically in µM, unit not repeated.

stdin: State its IC50 for this compound: `COc1cc(C(=O)NC(=S)Nc2cccc(-c3cn4ccsc4n3)c2)cc(OC)c1OC`
stdout: 1.1

stdin: For the compound `COc1cc(C(=O)NC(=N)Nc2ccc(C)c(NC(=O)c3ccc(-c4ccc(F)cc4)cc3)c2)cc(OC)c1OC` , give its reported IC50.
stdout: 0.014

stdin: Look up and state reported IC50 for `COc1cc(C(=O)NC(=O)Nc2cccc(NC(=O)c3ccccc3)c2)cc(OC)c1OC`
stdout: 0.16

stdin: Input `COc1cc(C(=O)NC(=S)Nc2cccc(-c3cc4ccccc4[nH]3)c2)cc(OC)c1OC` , output reported IC50.
stdout: 0.18

stdin: Using known records, supply IC50 for `COc1cc(C(=O)NC(=O)Nc2ccc(Cl)c(NC(=O)c3ccc(-c4ccccc4)cc3)c2)cc(OC)c1OC`
stdout: 0.08

stdin: Give IC50 for `COc1cc(C(=O)NC(=N)Nc2cccc(-c3cc4ccccc4[nH]3)c2)cc(OC)c1OC`
stdout: 0.07

stdin: Provide measured IC50 value, entry: `COc1cccc(CN(C(=O)CC(C)(C)C)[C@H]2C[C@@H](C(=O)N3CCNCC3)N(Cc3ccc4c(c3)OCO4)C2)c1`
stdout: 0.14

stdin: Provide IC50 value for the following compound: `COc1cc(C(=O)NC(=S)Nc2cccc(NC(=O)c3ccc(-c4ccc(F)cc4)cc3)c2)cc(OC)c1OC`
stdout: 0.1

stdin: Answer with the recorded IC50 of `COc1cc(C(=O)NC(=N)Nc2cccc(NC(=O)c3ccc(-c4ccc(F)cc4)cc3)c2)cc(OC)c1OC` only.
stdout: 0.033

stdin: Check the records and state IC50 for `COc1cc(C(=O)NC(=N)Nc2ccc(C)c(NC(=O)c3ccc(-c4ccccc4)cc3)c2)cc(OC)c1OC`
stdout: 0.015

stdin: Supply measured IC50 of `COc1cc(C(=O)NC(=N)Nc2cccc(NC(=O)c3ccccc3)c2)cc(OC)c1OC` in your reply.
stdout: 0.29

stdin: Identify the reported IC50 for the following entry. `COc1cc(C(=O)NC(=O)Nc2ccc(C)c(NC(=O)c3ccc(-c4ccccc4)cc3)c2)cc(OC)c1OC`
stdout: 0.013

stdin: Please look at this compound and report its IC50: `COc1cc(C(=O)NC(=N)Nc2cccc(-n3ccc4ccccc43)c2)cc(OC)c1OC`
stdout: 0.9

stdin: Note IC50 for the compound shown: `COc1cc(C(=O)NC(=S)Nc2cccc(-c3cn4ccccc4n3)c2)cc(OC)c1OC`
stdout: 0.82

stdin: Using known records, supply IC50 for `COc1cc(C(=O)NC(=S)Nc2ccc(Cl)c(C(=O)Nc3ccccc3)c2)cc(OC)c1OC`
stdout: 0.52

stdin: State its IC50 for this compound: `COc1cc(C(=O)NC(=N)Nc2ccc(Cl)c(NC(=O)c3ccccc3)c2)cc(OC)c1OC`
stdout: 0.37

stdin: Recall and state the measured IC50 for `COc1cc(C(=O)NC(=S)Nc2cccc(NC(=O)c3ccccc3)c2)cc(OC)c1OC` .
stdout: 0.65

stdin: Fill in reported IC50 for this entry: `COc1cc(C(=O)NC(=N)Nc2cccc(NC(=O)c3ccc(N4CCOCC4)cc3)c2)cc(OC)c1OC`
stdout: 0.22

---

Target: Smoothened (Mus musculus) (UniProt P56726)
Sequence (P56726 whole entry, looked up): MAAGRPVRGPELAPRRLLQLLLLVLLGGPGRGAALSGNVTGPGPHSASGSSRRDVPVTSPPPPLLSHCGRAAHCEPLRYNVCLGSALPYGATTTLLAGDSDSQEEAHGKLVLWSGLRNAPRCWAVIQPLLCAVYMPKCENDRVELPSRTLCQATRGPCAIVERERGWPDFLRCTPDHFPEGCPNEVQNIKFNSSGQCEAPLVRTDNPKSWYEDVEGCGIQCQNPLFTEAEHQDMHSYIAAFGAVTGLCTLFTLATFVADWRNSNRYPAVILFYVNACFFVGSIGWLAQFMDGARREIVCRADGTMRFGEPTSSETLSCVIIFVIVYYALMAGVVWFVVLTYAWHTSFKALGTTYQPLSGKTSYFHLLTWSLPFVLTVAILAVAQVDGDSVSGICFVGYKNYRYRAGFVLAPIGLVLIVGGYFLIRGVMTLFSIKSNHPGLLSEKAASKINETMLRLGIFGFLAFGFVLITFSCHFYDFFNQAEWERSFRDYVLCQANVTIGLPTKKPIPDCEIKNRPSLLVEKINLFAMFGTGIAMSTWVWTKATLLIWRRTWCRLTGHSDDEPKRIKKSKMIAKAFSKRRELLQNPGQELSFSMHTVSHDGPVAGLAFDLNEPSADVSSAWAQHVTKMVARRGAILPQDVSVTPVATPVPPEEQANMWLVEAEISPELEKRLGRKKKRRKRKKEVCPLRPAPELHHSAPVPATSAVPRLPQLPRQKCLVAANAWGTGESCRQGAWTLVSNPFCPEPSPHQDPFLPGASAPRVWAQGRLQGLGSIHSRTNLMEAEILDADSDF
Assay: Inhibition of Smo-mediated Hh signaling in mouse Shh-light2 cells at 3 uM by luciferase reporter gene assay
Settings: Shh Light II
value kind: inhibition (%)
Respond with the bare value in %.

stdin: For the compound `COc1cc(C(=O)NC(=O)Nc2cccc(NC(=O)c3cc4ccccc4[nH]3)c2)cc(OC)c1OC` , give its measured inhibition value.
stdout: 90

stdin: Return reported inhibition. Input compound: `CCOc1cc(C(=O)NC(=O)Nc2cccc(NC(=O)c3ccccc3)c2)cc(OCC)c1OCC`
stdout: 24

stdin: Read off the recorded inhibition for `COc1cc(C(=O)NC(=O)Nc2cccc(NC(=O)C(C)C)c2)cc(OC)c1OC`
stdout: 62

stdin: Tell me its inhibition given `CCOc1cc(C(=O)NC(=S)Nc2cccc(NC(=O)c3ccccc3)c2)cc(OCC)c1OCC` as the entry.
stdout: 100

stdin: Please supply the value of reported inhibition for the item `COc1cc(C(=O)NC(=S)Nc2cccc(-c3cn4ccccc4n3)c2)cc(OC)c1OC`
stdout: 93

stdin: Give a short answer stating reported inhibition for `COc1cc(C(=O)NC(=S)Nc2ccc(Cl)c(C(=O)Nc3ccccc3)c2)cc(OC)c1OC` .
stdout: 95

stdin: Respond only with inhibition recorded for `COc1cc(C(=O)NC(=S)Nc2ccc(F)c(NC(=O)c3ccccc3)c2)cc(OC)c1OC`
stdout: 98

stdin: Please look at this compound and report its inhibition: `COc1cc(C(=O)NC(=S)Nc2cccc(NC(=O)c3ccc(-c4ccccc4)cc3)c2C)cc(OC)c1OC`
stdout: 48

stdin: For `COc1cc(C(=O)NC(=S)Nc2cccc(NC(=O)c3cc(OC)c(OC)c(OC)c3)c2)cc(OC)c1OC` , write its inhibition.
stdout: 37

stdin: State its inhibition: `COc1cc(C(=O)NC(=O)Nc2ccc(Cl)c(NC(=O)c3ccc(-c4ccccc4)cc3)c2)cc(OC)c1OC`
stdout: 98

stdin: Entry `COc1cccc(C(=O)Nc2cccc(NC(=S)NC(=O)c3cc(OC)c(OC)c(OC)c3)c2)c1` needs its inhibition filled in; supply it.
stdout: 99

stdin: Entry `COc1cc(C(=O)NC(=S)Nc2cccc(NC(=O)c3ccc(Cl)cc3)c2)cc(OC)c1OC` needs its inhibition filled in; supply it.
stdout: 99

stdin: Tell me measured inhibition for `COc1ccccc1C(=O)Nc1cccc(NC(=S)NC(=O)c2cc(OC)c(OC)c(OC)c2)c1` please.
stdout: 49

stdin: Determine from records and report inhibition for `CCOc1cc(C(=O)NC(=S)Nc2cccc(NC(=O)c3ccccc3)c2)cc(OC)c1OCC`
stdout: 100
